Values from PubChem BioAssay AID1963849

# Test system: 299254-011-R-J1-PDC complex spheroid viability;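 further: spheroids exposed to drugs for one week before measurement; percent viability relative to DMSO vehicle control taken as 100%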
# experiment: Anticancer human tumor 299254-011-R-J1-PDC patient-derived melanoma cell line growth inhibition [POLQ]
# conditions: second compound 0.1 µM; first compound 0.0316 µM; hits give low values
experimental endpoint: viability, T/C (%)
The reply should be a number in %, with the unit left off.

Would you please give the reported viability, T/C of CCc1cc2c(N3CCc4c(cc(Cn5ccnc5)cc4-c4cn(C)nc4C(F)(F)F)C3=O)cc(C)nc2c(OC)n1 + COC1C(OC(N)=O)C(O)C(Oc2ccc3c(O)c(NC(=O)c4ccc(O)c(CC=C(C)C)c4)c(=O)oc3c2C)OC1(C)C with 299254-011-R-J1-PDC complex spheroid viability? 99.8

Would you please give the reported viability, T/C of COc1cccc(OCCCN)c1-c1cc(Nc2cnc(C#N)cn2)n[nH]1 + Nc1ccc(C#CCN(C(=O)Cc2ncc(C(F)(F)F)cc2C(F)(F)F)c2ccc(F)cc2)nn1 with 299254-011-R-J1-PDC complex spheroid viability? 84.9

Would you please give the reported viability, T/C of COc1cc2cc(C(=O)CCC(=O)O)sc2cc1OC + Nc1ccc(C#CCN(C(=O)Cc2ncc(C(F)(F)F)cc2C(F)(F)F)c2ccc(F)cc2)nn1 with 299254-011-R-J1-PDC complex spheroid viability? 96.9

Would you please give the reported viability, T/C of C=CCn1c(=O)c2cnc(Nc3ccc(N4CCN(C)CC4)cc3)nc2n1-c1cccc(C(C)(C)O)n1 + Cc1cccc(N(C)C(=O)C2C(O)CCN2c2nc(C)cc(C(F)(F)F)c2C#N)c1 with 299254-011-R-J1-PDC complex spheroid viability? 106

Okay, now this compound:
Would you please give the reported viability, T/C of O=C(c1cc(Cc2n[nH]c(=O)c3ccccc23)ccc1F)N1CCN(C(=O)C2CC2)CC1 + COC1C(OC(N)=O)C(O)C(Oc2ccc3c(O)c(NC(=O)c4ccc(O)c(CC=C(C)C)c4)c(=O)oc3c2C)OC1(C)C with 299254-011-R-J1-PDC complex spheroid viability? 107
